Molecular target: Proteasome Macropain subunit MB1 (Homo sapiens, UniProt P28074)
Sequence (P28074 whole entry): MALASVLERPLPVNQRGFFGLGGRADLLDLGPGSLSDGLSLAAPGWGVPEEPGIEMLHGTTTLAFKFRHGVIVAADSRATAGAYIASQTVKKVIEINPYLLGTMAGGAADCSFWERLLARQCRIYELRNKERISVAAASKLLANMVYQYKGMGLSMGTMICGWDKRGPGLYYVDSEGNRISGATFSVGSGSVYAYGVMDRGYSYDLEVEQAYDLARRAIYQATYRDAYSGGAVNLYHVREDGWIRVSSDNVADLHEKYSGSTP
Assay: Inhibition of 20S proteosome beta 5 purified from human HCT116 cells using Suc-LLVY-AMC as substrate incubated for 30 to 120 mins by fluorimetry
pIC50: −log10 of the molar value.
measured endpoint: pIC50

a. CC(C)C[C@H](NC(=O)OCc1ccccc1)C(=O)N[C@@H](Cc1ccc(O)cc1)C(=O)C(=O)NCc1ccccc1
b. CC(C)C[C@H](NC(=O)OCc1ccccc1)C(=O)N[C@@H](CC(C)C)C(=O)N[C@@H](CC(C)C)C(=O)C(=O)N1CCOCC1
c. CC(C)C[C@H](NC(=O)OCc1ccccc1)C(=O)N[C@@H](C(C)C)C(O)C(=O)NCc1ccccc1 (some centres not stated)
d. CC(C)C[C@H](NC(=O)OCc1ccccc1)C(=O)N[C@@H](CC(C)C)C(=O)N[C@@H](CC(C)C)C(=O)C(=O)N1CCc2ccccc2C1
Sort ascending by pIC50: all records listed above. Please respond by ranking the labels in the order requested.
c, a, d, b
(c: 4.09, a: 4.91, d: 6.11, b: 6.32)
